Ref: patent US20240270821A1

- ASSAY_COMMENT: Pepsin stability assay in simulated gastric fluid
- Format: in vitro ADME
- CONDITION_CONTEXT: pH 1.2, % Intact (SD)
Starred links: 1 amine or outer side, 2 acyl side, 3 side chain; linkers in the order of their positions; H or OH if unused. Non-standard residues stand in square brackets, D forms with d. Groups on a side chain read outwards from the residue. *: point of attachment. C18 diacid = O=C(O)CCCCCCCCCCCCCCCCC(=O)*; αMePhe(2-F) = C[C@](N)(Cc1ccccc1F)C(=O)O; γGlu = O=C(O)[C@H](CCC(=O)[*:2])N[*:1]; αMe4Pal = C[C@](N)(Cc1ccncc1)C(=O)O; αMeY = C[C@](N)(Cc1ccc(O)cc1)C(=O)O; 4Pal = N[C@@H](Cc1ccncc1)C(=O)O; αMeL = CC(C)C[C@](C)(N)C(=O)O; αMeS = C[C@](N)(CO)C(=O)O; Orn = NCCC[C@H](N)C(=O)O; AEEA = NCCOCCOCC(=O)O; Aib = CC(C)(N)C(=O)O
Some substances, each annotated with its measured remaining at 0.25 h, 0.4 mg/mL.
Output spec: scalar in %, unitless text.

Before answering, review these 6 worked examples.
SUBSTANCE: H-Y[Aib]QGT[αMePhe(2-F)]TSD[4Pal][αMeS]I[αMeL]LD[Orn]K([AEEA-γGlu-C18 diacid])AQ[αMe4Pal]EFI[dE][αMeY]LVEGGPSSGAPPPSGS-NH2 [Example 694]
UNITS_OF_MEASURE: %
MEASURED_NUMBER: 101
//
SUBSTANCE: H-Y[Aib]QGT[αMePhe(2-F)]TSD[4Pal][αMeS]I[αMeL]LD[Orn]K([AEEA-γGlu-C18 diacid])AQ[αMe4Pal]EFI[dE][αMeY]LIEGGPSSGAPPPSGTGE-NH2 [Example 714]
UNITS_OF_MEASURE: %
MEASURED_NUMBER: 99.2
//
SUBSTANCE: H-Y[Aib]QGT[αMePhe(2-F)]TSD[4Pal][αMeS]I[αMeL]LD[Orn]K([AEEA-γGlu-C18 diacid])AQ[αMe4Pal]EFI[dE][αMeY]LIEGGPSSGEPPPSGGGE-NH2 [Example 742]
UNITS_OF_MEASURE: %
MEASURED_NUMBER: 100
//
SUBSTANCE: H-Y[Aib]QGT[αMePhe(2-F)]TSD[4Pal][αMeS]I[αMeL]LD[Orn]K([AEEA-γGlu-C18 diacid])AQ[αMe4Pal]EFI[dE][αMeY]LVEGGPSSGEPPPSGS-NH2 [Example 733]
UNITS_OF_MEASURE: %
MEASURED_NUMBER: 109
//
SUBSTANCE: H-Y[Aib]QGT[αMePhe(2-F)]TSD[4Pal][αMeS]I[αMeL]LD[Orn]K([AEEA-γGlu-C18 diacid])AQ[αMe4Pal]EFI[dE][αMeY]LIEGGPSSGEPPPSGTGE-NH2 [Example 711]
UNITS_OF_MEASURE: %
MEASURED_NUMBER: 95
//
SUBSTANCE: H-Y[Aib]QGTFTSD[4Pal]SQ[αMeL]LD[Orn]K([dE-γGlu-C18 diacid])AQ[αMe4Pal]EFI[dE][αMeY]LIAGGPSSGAPPPSGSEEE-NH2 [Example 1235]
UNITS_OF_MEASURE: %
MEASURED_NUMBER: 1.4

Problem: Query: remaining at 0.25 h, 0.4 mg/mL; subject: H-Y[Aib]QGT[αMePhe(2-F)]TSD[4Pal]SI[αMeL]LD[Orn]K([AEEA-γGlu-C18 diacid])AQ[αMe4Pal][Orn]FIE[αMeY]LIEGGPSSGEPPPEGT-NH2 [Example 505]
Solution: 91.6

Problem: Find the recorded remaining at 0.25 h, 0.4 mg/mL belonging to H-Y[Aib]QGT[αMePhe(2-F)]TSD[4Pal][αMeS]I[αMeL]LD[Orn]K([AEEA-γGlu-C18 diacid])AQ[αMe4Pal]EFI[dE][αMeY]LIEGGPSSGAPPPSGSE-NH2 [Example 712] and report it.
Solution: 92.4

Problem: Fill in the blank: the reported remaining at 0.25 h, 0.4 mg/mL of H-Y[Aib]QGT[αMePhe(2-F)]TSD[4Pal]SI[αMeL]LD[Orn]K([AEEA-γGlu-C18 diacid])AQ[αMe4Pal][Orn]FI[dE]YLIEGGPSSGEPPPEGT-NH2 [Example 500] is ____.
Solution: 10.6

Problem: Param item = H-Y[Aib]QGT[αMePhe(2-F)]TSD[4Pal][αMeS]I[αMeL]LD[Orn]K([AEEA-γGlu-C18 diacid])AQ[αMe4Pal]EFI[dE][αMeY]LIEGGPSSGAPPPSGGGE-NH2 [Example 741] ; retrieve measured remaining at 0.25 h, 0.4 mg/mL.
Solution: 111

Problem: Reported remaining at 0.25 h, 0.4 mg/mL for H-Y[Aib]QGT[αMePhe(2-F)]TSD[4Pal][αMeS]I[αMeL]LD[Orn]K([γGlu-γGlu-C18 diacid])AQ[αMe4Pal]EFI[dE][αMeY]LVEGGPSSGAPPPSGS-NH2 [Example 696] : what is it?
Solution: 102

Problem: Look up remaining at 0.25 h, 0.4 mg/mL for this substance: H-Y[Aib]QGT[αMePhe(2-F)]TSD[4Pal][αMeS]I[αMeL]LD[Orn]K([γGlu-γGlu-C18 diacid])AQ[αMe4Pal]EFI[dE][αMeY]LIEGGPSSGAPPPSGTGE-NH2 [Example 718]
Solution: 103

---

- MEASURED_TARGET: hGIPR (Homo sapiens)
- Sequence (P48546 22-466): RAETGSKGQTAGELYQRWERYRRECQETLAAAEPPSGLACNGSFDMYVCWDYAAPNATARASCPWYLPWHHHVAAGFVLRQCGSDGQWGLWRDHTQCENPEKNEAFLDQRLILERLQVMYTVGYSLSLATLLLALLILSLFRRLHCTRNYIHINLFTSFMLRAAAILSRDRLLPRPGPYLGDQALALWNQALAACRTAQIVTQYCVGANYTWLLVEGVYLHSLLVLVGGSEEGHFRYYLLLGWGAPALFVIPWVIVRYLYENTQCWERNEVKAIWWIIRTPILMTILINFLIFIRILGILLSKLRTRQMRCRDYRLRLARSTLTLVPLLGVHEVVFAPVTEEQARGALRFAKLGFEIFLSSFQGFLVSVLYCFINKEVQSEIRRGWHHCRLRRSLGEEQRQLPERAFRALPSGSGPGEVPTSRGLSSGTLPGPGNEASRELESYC
- ASSAY_COMMENT: Functional cAMP activity in the presence of 1% HSA
- Type: cell-based
- CONDITION_CONTEXT: read-out: cAMP Rel EC50, hGIPR
Starred links: 1 amine or outer side, 2 acyl side, 3 side chain; linkers in the order of their positions; H or OH if unused. Non-standard residues stand in square brackets, D forms with d. Groups on a side chain read outwards from the residue. No end group written: not given here. *: point of attachment. C20 diacid = O=C(O)CCCCCCCCCCCCCCCCCCC(=O)*; C18 diacid = O=C(O)CCCCCCCCCCCCCCCCC(=O)*; αMePhe(2-F) = C[C@](N)(Cc1ccccc1F)C(=O)O; γGlu = O=C(O)[C@H](CCC(=O)[*:2])N[*:1]; αMe4Pal = C[C@](N)(Cc1ccncc1)C(=O)O; αMeY = C[C@](N)(Cc1ccc(O)cc1)C(=O)O; 4Pal = N[C@@H](Cc1ccncc1)C(=O)O; αMeL = CC(C)C[C@](C)(N)C(=O)O; αMeS = C[C@](N)(CO)C(=O)O; Orn = NCCC[C@H](N)C(=O)O; AEEA = NCCOCCOCC(=O)O; Aib = CC(C)(N)C(=O)O
Recorded pEC50 for the following substances
// returns pEC50 (minus log10 of molar concentration), number only

Worked cases, pEC50 given:
SUBSTANCE: H-Y[Aib]QGTFTSD[4Pal][αMeS]Q[αMeL]LD[Orn]K([dE-γGlu-C18 diacid])AQ[αMe4Pal]QFIQ[αMeY]LLE[Aib]GPSSGAPPPSGGGE-NH2 [Example 1138]
pEC50: 8.47

SUBSTANCE: H-Y[Aib]QGTFTSDYSI[αMeL]LDKQAAK([AEEA-AEEA-γGlu-C20 diacid])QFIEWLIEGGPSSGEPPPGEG-NH2 [Example 318]
pEC50: 7.28

SUBSTANCE: Y[Aib]QGT[αMePhe(2-F)]TSD[4Pal][αMeS]ILLD[Orn]K([γGlu-γGlu-C18 diacid])AQ[Aib][Orn]FI[dE][αMeY]LQEGGPSSGEPPPEGAE-NH2 [Example 546]
pEC50: 7.92

SUBSTANCE: H-Y[Aib]QGTFTSDFS[Orn][αMeL]LDKK([AEEA-γGlu-C18 diacid])AQ[Aib]AFIEYLLE[dA]GPSSGAPPPSGS-NH2 [Example 209]
pEC50: 7.63

Now, please, on to the next substance.
Problem: Form field: reported pEC50 of H-Y[Aib]QGT[αMePhe(2-F)]TSD[4Pal]SI[αMeL]LD[Orn]K([AEEA-γGlu-C18 diacid])AQ[αMe4Pal][Orn]FI[dE][αMeY]LIEGGPSSGEPPPEGTGE-NH2 [Example 680]
Solution: 8.98

---

Reported remaining at 1 h, 0.4 mg/mL by item:
- ASSAY_COMMENT: Pepsin stability assay in simulated gastric fluid
- Type: in vitro ADME
- CONDITION_CONTEXT: pH 1.2, % Intact (SD)
Starred links: 1 amine or outer side, 2 acyl side, 3 side chain; linkers in the order of their positions; H or OH if unused. Non-standard residues stand in square brackets, D forms with d. Groups on a side chain read outwards from the residue. *: point of attachment. C18 diacid = O=C(O)CCCCCCCCCCCCCCCCC(=O)*; αMePhe(2-F) = C[C@](N)(Cc1ccccc1F)C(=O)O; γGlu = O=C(O)[C@H](CCC(=O)[*:2])N[*:1]; αMe4Pal = C[C@](N)(Cc1ccncc1)C(=O)O; αMeY = C[C@](N)(Cc1ccc(O)cc1)C(=O)O; 4Pal = N[C@@H](Cc1ccncc1)C(=O)O; αMeL = CC(C)C[C@](C)(N)C(=O)O; αMeS = C[C@](N)(CO)C(=O)O; Orn = NCCC[C@H](N)C(=O)O; AEEA = NCCOCCOCC(=O)O; Aib = CC(C)(N)C(=O)O
Unit % implied. Number only.

Reference set, count: 5
SUBSTANCE: H-Y[Aib]QGT[αMePhe(2-F)]TSD[4Pal][αMeS]I[αMeL]LD[Orn]K([AEEA-γGlu-C18 diacid])AQ[αMe4Pal]EFI[dE][αMeY]LIEGGPSSGAPPPSGGGE-NH2 [Example 741]
UNITS_OF_MEASURE: %
remaining at 1 h, 0.4 mg/mL: 105
//
SUBSTANCE: H-Y[Aib]QGT[αMePhe(2-F)]TSD[4Pal][αMeS]I[αMeL]LD[Orn]K([AEEA-γGlu-C18 diacid])AQ[αMe4Pal]EFI[dE][αMeY]LIEGGPSSGEPPPSGTGE-NH2 [Example 711]
UNITS_OF_MEASURE: %
remaining at 1 h, 0.4 mg/mL: 91.9
//
SUBSTANCE: H-Y[Aib]QGT[αMePhe(2-F)]TSD[4Pal]SI[αMeL]LD[Orn]K([AEEA-γGlu-C18 diacid])AQ[αMe4Pal][Orn]FI[dE]YLIEGGPSSGEPPPEGT-NH2 [Example 500]
UNITS_OF_MEASURE: %
remaining at 1 h, 0.4 mg/mL: 0
//
SUBSTANCE: H-Y[Aib]QGTFTSD[4Pal]SQ[αMeL]LD[Orn]K([dE-γGlu-C18 diacid])AQ[αMe4Pal]EFI[dE][αMeY]LIAGGPSSGAPPPSGSEEE-NH2 [Example 1235]
UNITS_OF_MEASURE: %
remaining at 1 h, 0.4 mg/mL: 0
//
SUBSTANCE: H-Y[Aib]QGT[αMePhe(2-F)]TSD[4Pal][αMeS]I[αMeL]LD[Orn]K([AEEA-γGlu-C18 diacid])AQ[αMe4Pal]EFI[dE][αMeY]LIEGGPSSGAPPPSGSE-NH2 [Example 712]
UNITS_OF_MEASURE: %
remaining at 1 h, 0.4 mg/mL: 93.5

Problem: Give its remaining at 1 h, 0.4 mg/mL value. Item: H-Y[Aib]QGT[αMePhe(2-F)]TSD[4Pal][αMeS]I[αMeL]LD[Orn]K([AEEA-γGlu-C18 diacid])AQ[αMe4Pal]EFI[dE][αMeY]LIEGGPSSGEPPPSGGGE-NH2 [Example 742]
Solution: 103

Problem: So what's the measured remaining at 1 h, 0.4 mg/mL for this one? H-Y[Aib]QGT[αMePhe(2-F)]TSD[4Pal][αMeS]I[αMeL]LD[Orn]K([AEEA-γGlu-C18 diacid])AQ[αMe4Pal]EFI[dE][αMeY]LIEGGPSSGAPPPSGTGE-NH2 [Example 714]
Solution: 96.9

Problem: // lookup remaining at 1 h, 0.4 mg/mL for H-Y[Aib]QGT[αMePhe(2-F)]TSD[4Pal]SI[αMeL]LD[Orn]K([AEEA-γGlu-C18 diacid])AQ[αMe4Pal][Orn]FIE[αMeY]LIEGGPSSGEPPPEGT-NH2 [Example 505]
Solution: 53.5

Problem: # remaining at 1 h, 0.4 mg/mL lookup, item H-Y[Aib]QGT[αMePhe(2-F)]TSD[4Pal][αMeS]I[αMeL]LD[Orn]K([AEEA-γGlu-C18 diacid])AQ[αMe4Pal]EFI[dE][αMeY]LVEGGPSSGEPPPSGS-NH2 [Example 733]
Solution: 110
